Assay: yeast display, Sf9 membrane polyspecificity reagent, FACS + sequencing; frameworks hold sequencing errors
assay.endpoint: polyreactivity (PSR sort gate)

Here are 5 sequences together with their reported answers.
>  <input.sequence>
QVQLVESGGGLVQAGGSLRLSCAASGIIFGTYVMGWYRQAPGKERELVAAINRSGGNTYYADSVKGRFTISRDNEKNTVYLQMNSLKPEDTAVYYCAAEEAYRSRRGGFDYWGQGTQVTVSS

>  <assay.endpoint>
polyreactivity (PSR sort gate)

>  <result>
high polyreactivity

$$$$
>  <input.sequence>
QVQLVESGGGLVQAGGSLRLSCAASGSIFRLYGKGLYRQAPGKEREFGASITYRGGNTYYADSVKGRFTISRDNAKNTVYLQMNSLKPEDTAVYYCARSGYQKVGGFRYDYWGQGTQVTVSS

>  <assay.endpoint>
polyreactivity (PSR sort gate)

>  <result>
low polyreactivity

$$$$
>  <input.sequence>
QVQLVESGGGLVQAGGSLRLTCAASGFTFGSYVMGWYRQAPGKERELVADISIRGGSTYYADSVKGRFTISRDNAKNTVYLQMHSLKPEDTAVYYCNADPAFYYWEGIVGGADYDYWGIGTQVTVSS

>  <assay.endpoint>
polyreactivity (PSR sort gate)

>  <result>
low polyreactivity

$$$$
>  <input.sequence>
QVQLEESGGGLVQAGGSLRLSCAASGRIFQYYVRGWYRQAPGKERELVAAITRRGTNTYYADSVKGRFTISRDNAKNTVYLQMHSLNPEETAVYYCAATYYWSGYPVKTTSDYWGQGTQITVSS

>  <assay.endpoint>
polyreactivity (PSR sort gate)

>  <result>
high polyreactivity

$$$$
>  <input.sequence>
QVQLVESGGGLVQAGGSLRLSCSASGRIFFSYAMGWYRQAPGKERELVAAISRDGGTPYYADSVKGRFTISRDNAKNTVSLLLNSLKPEDTAVYYCADDWYLRRRIYGYWGQGTEVTVSS

>  <assay.endpoint>
polyreactivity (PSR sort gate)

>  <result>
high polyreactivity

$$$$

Let us move to another entry and its polyreactivity (PSR sort gate).
Tell me the measured polyreactivity (PSR sort gate) of QVQLVESGGGLVQAGGTLRLSCAASGIIFNYYAMGWYRHAPGKERELVAAITRGGRTNYADSVKGRFTISRDNAKNTVYLQMNSLKPEDTAVYYCNAPAFYKYKSFYAHSGYDYWGQGTQVTVSS , please.
high polyreactivity
